These measurements were taken from patent US7928098B2.

In this section we review reported melting point values for a set of molecules.

As a guide, the following entries are already answered.
# molecule, melting point
measured = [
    ("O=C(CC1CCOCC1)Nc1nc(-c2ccco2)c(C(=O)C2CCOCC2)s1 [Compound 430]", "206 to 209 °C"),
    ("O=C(Nc1nc(-c2ccco2)c(C(=O)c2cccnc2)s1)c1ccncc1 [Compound 211]", "245 to 248 °C"),
    ("O=C(Nc1nc(-c2ccco2)c(C(=O)c2ccccn2)s1)c1cnc(C2CC2)nc1 [Compound 137]", "150 to 154 °C"),
    ("O=C(C=Cc1ccccc1)Nc1nc(-c2ccco2)c(C(=O)C2CCOCC2)s1 [Compound 433]", "253 to 256 °C"),
    ("O=C(Nc1nc(-c2ccco2)c(C(=O)C2CCOCC2)s1)c1cccc(Cl)c1 [Compound 375]", "210 to 212 °C"),
    ("N#Cc1ccc(C(=O)Nc2nc(-c3ccco3)c(C(=O)C3CCOCC3)s2)o1 [Compound 420]", "222 to 223 °C"),
]

So what does the record say about melting point for O=C(Nc1nc(-c2ccco2)c(C(=O)C2CCOCC2)s1)c1ccccn1 [Compound 412] ?
185 to 186 °C

Next entry: O=C(CN1CCOCC1)Nc1nc(-c2ccco2)c(C(=O)c2ccccn2)s1 [Compound 172]
170 to 171 °C
